Data origin: the NIST ThermoML archive (doi:10.1016/j.jct.2017.08.004)

// reported molar heat capacity at constant pressure for each item listed
- Protocol notes: molar heat capacity at constant pressure
- Particulars: 202.15 K; 101.33 kPa; Crystal; Small sample (50 mg) DSC

Compound	Output unit	molar heat capacity at constant pressure
OC[C@@H](O)[C@H](O)[C@@H](O)CO	J/K/mol	142.18
OC[C@@H](O)[C@@H](O)[C@H](O)[C@H](O)CO	J/K/mol	158.14
OC[C@@H](O)C(O)[C@H](O)CO	J/K/mol	136.28
OC[C@H](O)C(O)[C@@H](O)CO [L-(-)-arabitol]	J/K/mol	141.06
OC[C@@H](O)[C@@H](O)CO	J/K/mol	114.29
O[C@H]1[C@H](O)[C@@H](O)[C@H](O)[C@@H](O)[C@H]1O [cis-1,2,3,5-trans-4,6-cyclohexanehexol]	J/K/mol	144.76
